Where do these numbers come from? They come from patent US20210115036A1.

# system_under_test: human TRPC5 (Homo sapiens)
# Construct: expressed in transfected cells; host or cells: HEK 293
# Sequence (Q9UL62 1-973): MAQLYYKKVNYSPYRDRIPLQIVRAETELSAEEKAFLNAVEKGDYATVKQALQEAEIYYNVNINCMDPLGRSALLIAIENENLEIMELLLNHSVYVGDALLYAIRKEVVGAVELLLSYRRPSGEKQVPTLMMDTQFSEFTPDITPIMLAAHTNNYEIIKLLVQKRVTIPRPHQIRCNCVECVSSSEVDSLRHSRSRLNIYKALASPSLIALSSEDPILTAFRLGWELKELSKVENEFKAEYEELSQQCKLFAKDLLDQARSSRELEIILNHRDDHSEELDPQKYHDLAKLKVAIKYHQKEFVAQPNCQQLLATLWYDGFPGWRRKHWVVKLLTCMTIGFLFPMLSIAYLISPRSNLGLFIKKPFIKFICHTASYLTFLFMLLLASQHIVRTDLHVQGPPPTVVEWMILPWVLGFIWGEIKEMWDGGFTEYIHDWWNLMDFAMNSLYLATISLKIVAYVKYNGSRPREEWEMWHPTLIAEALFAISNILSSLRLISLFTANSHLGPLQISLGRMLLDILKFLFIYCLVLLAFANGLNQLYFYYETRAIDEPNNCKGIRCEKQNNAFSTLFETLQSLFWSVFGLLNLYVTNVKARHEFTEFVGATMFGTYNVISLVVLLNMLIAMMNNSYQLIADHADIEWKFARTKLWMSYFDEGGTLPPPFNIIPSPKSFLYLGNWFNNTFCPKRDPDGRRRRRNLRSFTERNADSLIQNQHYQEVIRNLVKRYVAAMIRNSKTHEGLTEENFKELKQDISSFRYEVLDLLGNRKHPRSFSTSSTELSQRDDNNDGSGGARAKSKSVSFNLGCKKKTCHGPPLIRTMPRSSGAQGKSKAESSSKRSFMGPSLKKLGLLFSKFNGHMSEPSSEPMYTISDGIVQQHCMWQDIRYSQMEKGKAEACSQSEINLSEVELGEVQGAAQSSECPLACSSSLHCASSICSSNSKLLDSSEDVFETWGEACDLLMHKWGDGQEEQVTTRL
# measurement_notes: Automated patch clamp assay (QPatch), current block after stimulation with rosiglitazone
# Type: cell-based
# details: HEK293 cells overexpressing TRPC5, whole cell automated patch, 100 mV, 1-substituted 7-azaindoles, read-out: TRPC5 IC50 100 mV
pIC50: −log10 of the molar value.
quantity_measured: pIC50

The cases that follow already have their pIC50 on record.
[
  {
    "molecule": "CC(C)(O)Cc1cc2cccnc2n1Cc1ccccc1",
    "pIC50": "< 4.52"
  },
  {
    "molecule": "CC(C)(C)c1cc2c(OCCCO)ccnc2n1Cc1ccccc1",
    "pIC50": "< 4.52"
  },
  {
    "molecule": "CN(C)Cc1cc2cccnc2n1Cc1ccccc1",
    "pIC50": 4.67
  },
  {
    "molecule": "Clc1ccc(Cn2c(CN3CCCC3)cc3cccnc32)cc1",
    "pIC50": 4.60
  }
]

Ask: GET pIC50 | system: human TRPC5 (Homo sapiens) | item: C[C@@H](c1ccccc1)n1c(C(C)(C)C)cc2cccnc21
Reply: < 4.52

Ask: For human TRPC5 (Homo sapiens), give pIC50 of the listed compound: OCc1cc2cccnc2n1Cc1ccccc1
Reply: < 4.52

Ask: Find the measured pIC50 of Cn1nc(C(F)(F)F)cc1Cn1c(C(C)(C)C)cc2cccnc21 with human TRPC5 (Homo sapiens) as test system.
Reply: 4.72

Ask: Specify the recorded pIC50 for C[C@H](c1ccccc1)n1c(C(C)(C)C)cc2cccnc21 , system: human TRPC5 (Homo sapiens).
Reply: < 4.52

Ask: Lab note: record pIC50 of CC(C)(C)c1cc2cccnc2n1Cc1ccncc1 tested on human TRPC5 (Homo sapiens).
Reply: < 4.52

Ask: Fill in: pIC50 on human TRPC5 (Homo sapiens), entry CC(C)(C)Cc1cc2cccnc2n1Cc1ccccc1
Reply: < 4.52

Ask: Find pIC50 for Cn1cc(Cn2c(C(C)(C)C)cc3cccnc32)cn1 on human TRPC5 (Homo sapiens) and write it down.
Reply: < 4.52

Ask: // output pIC50; input CC(C)(C)c1cc2cccnc2n1Cc1cccnc1 ; system human TRPC5 (Homo sapiens)
Reply: < 4.52

---

# system_under_test: human TRPC5 (Homo sapiens)
# Construct: expressed in transfected cells; host or cells: HEK 293
# measurement_notes: Automated patch clamp assay (QPatch), current block after stimulation with rosiglitazone
# Assay type: cell-based
# details: HEK293 cells overexpressing TRPC5, whole cell automated patch, 80 mV, 1-substituted 7-azaindoles, read-out: TRPC5 IC50 80 mV
Below, each entry is listed with its recorded IC50.
Your answer should be a plain number; it is taken to be in µM.

[
  {
    "molecule": "c1ccc(Cn2c(CN3CCCC3)cc3cccnc32)cc1",
    "units": "µM",
    "IC50": 17
  }
]

# context switch: different molecule, same IC50
Ask: Tell me its IC50 given Cn1nc(C(F)(F)F)cc1Cn1c(C(C)(C)C)cc2cccnc21 as the entry.
Reply: 19.6

---

# system_under_test: human TRPC5 (Homo sapiens, UniProt Q9UL62)
# Construct: expressed in transfected cells; host or cells: HEK 293
# measurement_notes: Automated patch clamp assay (QPatch), current block after stimulation with rosiglitazone
# Assay type: cell-based
# details: HEK293 cells overexpressing TRPC5, whole cell automated patch, 100 mV, 7-substituted 7-azaindoles, read-out: TRPC5 IC50 100 mV
pIC50: −log10 of the molar value.
Mark 0 for pIC50 values under 5, and 1 for everything at or above.

Example entries begin here.
[
  {
    "compound": "CC(C)(C)c1cc2cccn(Cc3ccc(Cl)cc3)c-2n1 [drawing 125]",
    "cat": 1
  },
  {
    "compound": "CC(C)(C)c1cc2cccn(Cc3ccncc3)c-2n1",
    "cat": 0
  },
  {
    "compound": "CC(C)(C)c1cc2cccn(Cc3cccnc3)c-2n1 [drawing 133]",
    "cat": 0
  },
  {
    "compound": "CC(C)(C)c1cc2cccn(C[C@H]3CC[C@H](C)CC3)c-2n1 [drawing 137]",
    "cat": 0
  },
  {
    "compound": "CC(C)(C)c1cc2cccn(Cc3cccnc3)c-2n1 [drawing 134]",
    "cat": 0
  }
]

Ask: Please tell me: is the compound Cc1nn(C)cc1Cn1cccc2cc(C(C)(C)C)nc1-2 at or over 5 in terms of pIC50?
Reply: 0

Ask: Record COc1ccc(Cn2cccc3cc(C(C)(C)C)nc2-3)cc1 ; criterion: pIC50 no lower than 5. Met?
Reply: 1

Ask: Decide: is the reported value of pIC50 for Cc1noc(C)c1Cn1cccc2cc(C(C)(C)C)nc1-2 equal to or greater than 5?
Reply: 0

---

# system_under_test: human TRPC5 (Homo sapiens)
# Construct: expressed in transfected cells; host or cells: HEK 293
# Sequence (Q9UL62 1-973): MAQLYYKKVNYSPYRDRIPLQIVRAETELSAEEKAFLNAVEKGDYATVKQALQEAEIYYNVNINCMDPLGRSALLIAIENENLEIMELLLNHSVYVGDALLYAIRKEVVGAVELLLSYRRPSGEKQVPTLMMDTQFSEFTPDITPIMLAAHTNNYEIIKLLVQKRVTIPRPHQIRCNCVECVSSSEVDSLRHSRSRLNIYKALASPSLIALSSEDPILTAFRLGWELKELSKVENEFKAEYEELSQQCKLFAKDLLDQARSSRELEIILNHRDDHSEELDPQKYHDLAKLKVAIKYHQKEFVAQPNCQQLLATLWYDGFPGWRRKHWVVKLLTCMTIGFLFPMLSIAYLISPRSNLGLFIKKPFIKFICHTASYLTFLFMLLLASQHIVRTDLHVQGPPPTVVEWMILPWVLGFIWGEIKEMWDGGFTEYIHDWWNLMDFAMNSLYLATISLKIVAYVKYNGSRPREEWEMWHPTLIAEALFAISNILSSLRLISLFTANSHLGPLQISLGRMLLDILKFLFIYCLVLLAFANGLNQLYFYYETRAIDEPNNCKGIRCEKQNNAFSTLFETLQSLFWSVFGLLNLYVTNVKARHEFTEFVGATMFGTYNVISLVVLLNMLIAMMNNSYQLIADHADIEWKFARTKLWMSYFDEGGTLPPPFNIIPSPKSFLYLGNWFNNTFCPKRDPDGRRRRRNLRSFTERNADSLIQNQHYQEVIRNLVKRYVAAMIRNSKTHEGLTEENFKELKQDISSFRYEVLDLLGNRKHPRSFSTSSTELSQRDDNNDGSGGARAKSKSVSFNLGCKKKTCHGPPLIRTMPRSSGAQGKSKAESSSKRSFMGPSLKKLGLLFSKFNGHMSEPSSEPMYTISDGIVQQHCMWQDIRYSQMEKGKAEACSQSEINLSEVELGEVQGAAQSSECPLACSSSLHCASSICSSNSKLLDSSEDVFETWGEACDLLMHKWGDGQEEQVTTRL
# measurement_notes: Automated patch clamp assay (QPatch), current block after stimulation with rosiglitazone
# Type: cell-based
# details: HEK293 cells overexpressing TRPC5, whole cell automated patch, 100 mV, 7-substituted 7-azaindoles, read-out: TRPC5 IC50 100 mV
hey, just use fulfilled if measured IC50 is less than 8 µM, otherwise not fulfilled

Past entries and their recorded results:
[
  {
    "compound": "COc1cccc(Cn2cccc3cc(C(C)(C)C)nc2-3)c1 [drawing 130]",
    "cat": "not fulfilled"
  },
  {
    "compound": "CC(C)(C)c1cc2cccn(Cc3cncc(F)c3)c-2n1",
    "cat": "fulfilled"
  },
  {
    "compound": "CC(C)(C)c1cc2cccn(C[C@H]3CC[C@H](C)CC3)c-2n1 [drawing 138]",
    "cat": "not fulfilled"
  }
]

Next:
Ask: Please indicate whether the reported IC50 of Cn1cc(Cn2cccc3cc(C(C)(C)C)nc2-3)cn1 is strictly below 8 µM.
Reply: not fulfilled
